Reported inhibition at 1 µM values for the following compounds.
- test_target: CYP2C9 (Homo sapiens)
- protocol: Inhibition of human hepatic CYP2C9 at 1 uM relative to control
- Assay type: ADME

[
  {
    "compound": "C[C@]12CC[C@H](O)CC1=CC[C@@H]1[C@@H]2CC[C@]2(C)C(c3cccnc3)=CC[C@@H]12 [ABIRATERONE]",
    "inhibition at 1 µM (%)": 31.6
  },
  {
    "compound": "Fc1cncc(CN2CCc3c(sc4ccc(F)cc34)C2)c1",
    "inhibition at 1 µM (%)": 0
  },
  {
    "compound": "Oc1ccc2sc3c(c2c1)CCN(Cc1cccnc1)C3",
    "inhibition at 1 µM (%)": 0
  },
  {
    "compound": "Fc1ccc2sc3c(c2c1)CCN(Cc1c[nH]cn1)C3",
    "inhibition at 1 µM (%)": 98.5
  },
  {
    "compound": "Cc1ccncc1CN1CCc2c(sc3ccc(F)cc23)C1",
    "inhibition at 1 µM (%)": 0
  },
  {
    "compound": "COc1cncc(CN2CCc3c(sc4ccc(F)cc34)C2)c1",
    "inhibition at 1 µM (%)": 0
  },
  {
    "compound": "Fc1ccc2sc3c(c2c1)CCN(Cc1cccnc1)C3",
    "inhibition at 1 µM (%)": 6.6
  }
]

---

Reported inhibition at 10 µM by item:
- test_target: CYP2C9 (Homo sapiens, UniProt P11712)
- Sequence (P11712 whole entry): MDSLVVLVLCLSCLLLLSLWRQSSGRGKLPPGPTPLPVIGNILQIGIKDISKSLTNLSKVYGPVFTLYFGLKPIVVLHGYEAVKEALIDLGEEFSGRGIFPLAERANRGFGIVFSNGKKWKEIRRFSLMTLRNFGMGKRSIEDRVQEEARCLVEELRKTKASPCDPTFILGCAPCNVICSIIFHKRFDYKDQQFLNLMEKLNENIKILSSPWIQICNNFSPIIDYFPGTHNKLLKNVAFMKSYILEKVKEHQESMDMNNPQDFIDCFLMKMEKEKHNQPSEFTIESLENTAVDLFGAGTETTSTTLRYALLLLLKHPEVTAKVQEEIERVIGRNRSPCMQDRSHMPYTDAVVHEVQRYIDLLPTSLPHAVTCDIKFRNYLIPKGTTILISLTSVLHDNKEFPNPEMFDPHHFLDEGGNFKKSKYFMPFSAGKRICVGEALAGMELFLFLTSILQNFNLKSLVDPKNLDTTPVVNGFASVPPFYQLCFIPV
- protocol: Inhibition of human hepatic CYP2C9 at 10 uM relative to control
- Format: ADME

[
  {
    "chemical_smiles": "COc1cncc(CN2CCc3c(sc4ccc(F)cc34)C2)c1",
    "inhibition at 10 µM [%]": 53.8
  },
  {
    "chemical_smiles": "Fc1ccc2sc3c(c2c1)CCN(Cc1c[nH]cn1)C3",
    "inhibition at 10 µM [%]": 100
  },
  {
    "chemical_smiles": "Fc1ccc2sc3c(c2c1)CCN(Cc1cccnc1)C3",
    "inhibition at 10 µM [%]": 53.2
  },
  {
    "chemical_smiles": "Fc1cncc(CN2CCc3c(sc4ccc(F)cc34)C2)c1",
    "inhibition at 10 µM [%]": 51.6
  },
  {
    "chemical_smiles": "Cc1ccncc1CN1CCc2c(sc3ccc(F)cc23)C1",
    "inhibition at 10 µM [%]": 21.8
  },
  {
    "chemical_smiles": "Oc1ccc2sc3c(c2c1)CCN(Cc1cccnc1)C3",
    "inhibition at 10 µM [%]": 17.5
  },
  {
    "chemical_smiles": "C[C@]12CC[C@H](O)CC1=CC[C@@H]1[C@@H]2CC[C@]2(C)C(c3cccnc3)=CC[C@@H]12",
    "inhibition at 10 µM [%]": 82.5
  }
]

---

- test_target: CYP2C19 (Homo sapiens)
- Sequence (P33261 whole entry): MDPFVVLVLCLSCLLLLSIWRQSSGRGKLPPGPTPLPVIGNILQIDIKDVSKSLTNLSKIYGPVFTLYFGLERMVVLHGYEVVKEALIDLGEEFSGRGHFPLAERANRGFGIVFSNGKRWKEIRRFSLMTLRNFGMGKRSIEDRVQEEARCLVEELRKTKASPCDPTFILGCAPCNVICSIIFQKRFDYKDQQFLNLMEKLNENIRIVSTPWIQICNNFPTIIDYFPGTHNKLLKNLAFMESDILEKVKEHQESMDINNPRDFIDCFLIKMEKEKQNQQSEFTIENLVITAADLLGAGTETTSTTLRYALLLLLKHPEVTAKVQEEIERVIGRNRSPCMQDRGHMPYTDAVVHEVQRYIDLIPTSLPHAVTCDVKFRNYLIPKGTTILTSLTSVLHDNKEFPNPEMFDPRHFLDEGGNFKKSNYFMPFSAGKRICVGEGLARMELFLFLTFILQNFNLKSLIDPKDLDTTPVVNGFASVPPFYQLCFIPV
- protocol: Inhibition of human hepatic CYP2C19 at 10 uM relative to control
- Type: ADME

[
  {
    "chemical_smiles": "Oc1ccc2sc3c(c2c1)CCN(Cc1cccnc1)C3",
    "unit_info": "%",
    "inhibition at 10 µM": 71.6
  },
  {
    "chemical_smiles": "Fc1cncc(CN2CCc3c(sc4ccc(F)cc34)C2)c1",
    "unit_info": "%",
    "inhibition at 10 µM": 61.3
  },
  {
    "chemical_smiles": "Fc1ccc2sc3c(c2c1)CCN(Cc1c[nH]cn1)C3",
    "unit_info": "%",
    "inhibition at 10 µM": 98.7
  },
  {
    "chemical_smiles": "COc1cncc(CN2CCc3c(sc4ccc(F)cc34)C2)c1",
    "unit_info": "%",
    "inhibition at 10 µM": 84.9
  },
  {
    "chemical_smiles": "C[C@]12CC[C@H](O)CC1=CC[C@@H]1[C@@H]2CC[C@]2(C)C(c3cccnc3)=CC[C@@H]12",
    "unit_info": "%",
    "inhibition at 10 µM": 91.6
  },
  {
    "chemical_smiles": "Cc1ccncc1CN1CCc2c(sc3ccc(F)cc23)C1",
    "unit_info": "%",
    "inhibition at 10 µM": 65.2
  },
  {
    "chemical_smiles": "Fc1ccc2sc3c(c2c1)CCN(Cc1cccnc1)C3",
    "unit_info": "%",
    "inhibition at 10 µM": 92.5
  }
]
